Values were extracted from BindingDB's records for doi:10.1021/jm050855s.

- Measurement protocol: Inhibition of HCV RNA replication in Huh7 cells
Reported EC50 values follow for various compounds
Value type: EC50 (nM)

CCOC(=O)CNc1ccc2c(c1)c(O)c(C1=Nc3ccccc3S(=O)(=O)N1)c(=O)n2CCC(C)C | 265
CC(C)CCn1c(=O)c(C2=Nc3ccccc3S(=O)(=O)N2)c(O)c2ccccc21 | 417
Cc1ccc2c(c1)c(O)c(C1=Nc3ccccc3S(=O)(=O)N1)c(=O)n2CCC(C)C | 180
O=c1c(C2=Nc3ccccc3S(=O)(=O)N2)c(O)c2ccccc2n1CCC1CC1 | 152
CC(C)CCn1c(=O)c(C2=Nc3ccccc3S(=O)(=O)N2)c(O)c2cc(N)ccc21 | 274
O=c1c(C2=Nc3ccccc3S(=O)(=O)N2)c(O)c2ccccc2n1-c1ccccc1 | 774
O=c1c(C2=Nc3ccccc3S(=O)(=O)N2)c(O)c2ccccc2n1Cc1ccoc1 | 389
O=c1c(C2=Nc3ccccc3S(=O)(=O)N2)c(O)c2ccccc2n1CC1CCC1 | 241
